- test.summary: In vivo toxic effect was determined in mouse after oral administration with 10% aqueous acacia gum; value ranges from 1.75-2.99
- Format: toxicity, organism-based
readout.type: LD50 (µmol/kg)

Cl.Cl.O=C(CCN1CCN(c2ccccn2)CC1)Nc1cccc([N+](=O)[O-])c1    2070

* * *

- test.summary: In vivo toxic effect was determined in mouse after intraperitoneal administration with 10% aqueous acacia gum; value ranges from 4.25-7.74
- Assay type: toxicity, organism-based
- condition.set: ip
readout.type: LD50

O=C(O)CCN1CCN(c2ccccn2)CC1    5540 µmol/kg

* * *

- test.summary: In vivo toxic effect was determined in mouse after intraperitoneal administration with 10% aqueous acacia gum; value ranges from 0.72-1.13
- Type: toxicity, organism-based
- condition.set: ip
readout.type: LD50 (µmol/kg)

Cc1cccc(C)c1NC(=O)CN1CCN(c2ccccn2)CC1    900

* * *

- test.summary: In vivo toxic effect was determined in mouse after oral administration with 10% aqueous acacia gum; value ranges from 0.99-1.61
- Assay type: toxicity, organism-based
readout.type: LD50 (µmol/kg)

COc1ccc(NC(=O)CCN2CCN(c3ccccn3)CC2)cc1.Cl.Cl    1160

* * *

- test.summary: In vivo toxic effect was determined in mouse after intraperitoneal administration with 10% aqueous acacia gum; value ranges from 0.89-1.63
- Type: toxicity, organism-based
- condition.set: ip
readout.type: LD50 (µmol/kg)

CCC(=O)Nc1ccc(NC(=O)CCN2CCN(c3ccccn3)CC2)cc1.Cl.Cl    1050

* * *

- test.summary: In vivo toxic effect was determined in mouse after intraperitoneal administration with 10% aqueous acacia gum; value ranges from 0.27-0.50
- Assay type: toxicity, organism-based
- condition.set: ip
readout.type: LD50 (µmol/kg)

COc1cccc(N2CCN(CCC(=O)Nc3ccccc3N)CC2)n1.Cl.Cl    370

* * *

- Test system: Rattus norvegicus
- test.summary: Rat PCA Test(50% inhibition of spot areas)in the female albino rats after (ip) administration in 10% aqueous acacia gum
- Format: functional
- condition.set: read-out: ID50 (the source's name)
readout.type: ED50

Cl.Cl.N#Cc1ccc(NC(=O)CCN2CCN(c3ccccn3)CC2)cc1    > 39 µmol/kg
COC(=O)CC(C)N1CCN(c2ccccn2)CC1.O=C(O)/C=C\C(=O)O.O=C(O)/C=C\C(=O)O (configuration not stated)    > 404 µmol/kg
Cc1cc(C)c(C)c(NC(=O)CN2CCN(c3ccccn3)CC2)c1C    > 212 µmol/kg
O=C(O)CCN1CCN(c2ccccn2)CC1    > 1280 µmol/kg
COc1cccc(NC(=O)CCN2CCN(c3ccccn3)CC2)c1.Cl.Cl    > 118 µmol/kg
Cl.Cl.O=C(CCN1CCN(c2ccccn2)CC1)Nc1cccc(C(F)(F)F)c1    > 55 µmol/kg
COc1cccc(N2CCN(CCC(=O)Nc3ccccc3[N+](=O)[O-])CC2)n1.Cl    > 237 µmol/kg
CCOC(=O)CC(C)N1CCN(c2ccccn2)CC1.Cl.Cl (configuration not stated)    > 857 µmol/kg
O=C(CCN1CCN(c2ccccn2)CC1)Nc1ccc(NC(=O)Nc2ccccc2)cc1    > 225 µmol/kg
CC(C)Sc1ccc(NC(=O)CCN2CCN(c3ccccn3)CC2)cc1    > 120 µmol/kg
NS(=O)(=O)c1ccc(NC(=O)CCN2CCN(c3ccccn3)CC2)cc1    > 257 µmol/kg
Cl.Cl.O=C(CCN1CCN(c2ccccn2)CC1)Nc1ccccc1[N+](=O)[O-]    > 230 µmol/kg
